Target desc: T1, human TNFR2 (human, UniProt P20333 23-461)
T1 construct: expressed on the surface of CHO cells; also called HuTNFR2; TNFRSF1B
T1 sequence: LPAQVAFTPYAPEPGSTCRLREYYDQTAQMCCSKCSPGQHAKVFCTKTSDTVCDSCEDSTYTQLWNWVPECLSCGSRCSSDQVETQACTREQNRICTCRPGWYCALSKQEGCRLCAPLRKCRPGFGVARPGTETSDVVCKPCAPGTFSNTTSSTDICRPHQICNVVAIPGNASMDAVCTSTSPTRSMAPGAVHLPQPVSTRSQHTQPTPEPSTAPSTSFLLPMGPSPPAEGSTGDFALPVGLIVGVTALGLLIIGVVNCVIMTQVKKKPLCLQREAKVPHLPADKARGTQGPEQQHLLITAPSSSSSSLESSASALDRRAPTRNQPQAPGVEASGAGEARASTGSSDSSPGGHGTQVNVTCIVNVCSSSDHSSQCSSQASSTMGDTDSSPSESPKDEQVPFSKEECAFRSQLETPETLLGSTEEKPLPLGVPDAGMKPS
Test: binding to human TNFR2 CHO cells
Readout type: binding result

Example entries and their recorded answers appear below.
binder="IgG 1918 (antibody, name in Kabat numbering, V domains shown, IgG) VH: QVQLVQSGAEVKKPGASVKVSCKVSGFSFPSSGVDWVRQAPGQGLEWLGVTRGEGSTHYNQKFQGRVTITKDTSKSTVYMELSSLRSEDTAVYYCASGEWDEGFVYWGQGTLVTVSS VL: DIQLTQSPSFLSASVGDRVTITCKASQNVGTAVAWYQQKPGKAPKLLIYAASTLQSGVPSRFSGSGSGTEFTLTISSLQPEDFATYYCQQYNSYPFGGGTKVEIKR" result="no binding"
binder="IgG 2023 (antibody, name in Kabat numbering, V domains shown, IgG) VH: QVQLVQSGAEVKKPGASVKVSCKVSGFSFPSSGVDWVRQAPGQGLEWLGVTFQEGSTHYNQKFQGRVTITKDTSKSTVYMELSSLRSEDTAVYYCASGERDEGFVYWGQGTLVTVSS VL: DIQLTQSPSFLSASVGDRVTITCKASQNVGTAVAWYQQKPGKAPKLLIYAASTLQSGVPSRFSGSGSGTEFTLTISSLQPEDFATYYCLQKSSYPLTFGGGTKVEIKR" result="no binding"
binder="IgG 1921 (antibody, name in Kabat numbering, V domains shown, IgG) VH: QVQLVQSGAEVKKPGASVKVSCKVSGFSFPSSGVDWVRQAPGQGLEWLGVTHGSGSTHYNQKFQGRVTITKDTSKSTVYMELSSLRSEDTAVYYCASGEWDEGFVYWGQGTLVTVSS VL: DIQLTQSPSFLSASVGDRVTITCKASQNVGTAVAWYQQKPGKAPKLLIYAASTLQSGVPSRFSGSGSGTEFTLTISSLQPEDFATYYCQQYNSYPFGGGTKVEIKR" result="no binding"
binder="IgG 1913 (antibody, name in Kabat numbering, V domains shown, IgG) VH: QVQLVQSGAEVKKPGASVKVSCKVSGFSFPSSGVDWVRQAPGQGLEWLGVTWGVGSTHYNQKFQGRVTITKDTSKSTVYMELSSLRSEDTAVYYCASGESTEGFVYWGQGTLVTVSS VL: DIQLTQSPSFLSASVGDRVTITCKASQNVGTAVAWYQQKPGKAPKLLIYAASTLQSGVPSRFSGSGSGTEFTLTISSLQPEDFATYYCQQYSSYPLTFGGGTKVEIKR" result="no binding"

Lab note: next binder to report on.
State the recorded binding result for this entry: IgG 1956 (antibody, name in Kabat numbering, V domains shown, IgG) VH: QVQLVQSGAEVKKPGASVKVSCKVSGFSFPSSGVDWVRQAPGQGLEWLGVTKGQGSTHYNQKFQGRVTITKDTSKSTVYMELSSLRSEDTAVYYCASGEQDEGFVYWGQGTLVTVSS VL: DIQLTQSPSFLSASVGDRVTITCKASQNVGTAVAWYQQKPGKAPKLLIYAASTLQSGVPSRFSGSGSGTEFTLTISSLQPEDFATYYCQQYSSYPLTFGGGTKVEIKR
no binding
